assay text: Lipophilicity, log P of the compound
Type: physicochemical
measurement conditions: octanol/water; read-out: logP
Each record here notes measured logP.
Answer field: number only, no words.

Solved cases below.
Give logP for `Nc1nonc1-c1noc(-c2cccnc2O)n1`
0.04

Give logP for `O=C1OC(c2ccccc2)=N/C1=C\Nc1cccc([N+](=O)[O-])c1`
3.05

Give logP for `Cc1cccc(NC(=O)c2ccc(C(=O)Nc3cccc(C)n3)cc2)n1`
2.68

Others:
Give logP for `O=C(O)c1ccc(Cc2ccccc2)o1`
2.22

Give logP for `CN(CC(=O)O)c1nc2ccc([N+](=O)[O-])cc2s1`
1.92

Give logP for `O=C1Nc2ccccc2Nc2ccccc21`
2.27

Give logP for `NCC(O)(c1ccc(Cl)cc1)c1ccc(Cl)cc1`
3.63

====

Each record here notes measured Kd.
target under test: Biliverdin-producing heme oxygenase (Neisseria meningitidis, UniProt Q9AH50)
Sequence (Q9AH50 whole entry): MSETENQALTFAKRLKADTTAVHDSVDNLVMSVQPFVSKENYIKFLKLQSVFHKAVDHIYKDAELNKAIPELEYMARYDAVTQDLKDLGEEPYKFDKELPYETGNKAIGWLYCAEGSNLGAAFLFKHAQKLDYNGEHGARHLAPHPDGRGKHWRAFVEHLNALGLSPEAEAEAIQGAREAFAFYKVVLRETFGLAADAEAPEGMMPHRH
assay text: Binding affinity to Neisseria meningitidis wild type apo heme oxygenase expressed in Escherichia coli BL21(DE3) pLysS by spectrofluorimetric analysis
measurement conditions: read-out: Kd
Field format: number, assumed µM, no unit text.

Solved cases below.
Give Kd for `NC(=O)c1ccc(NC(=O)/C=C\C(=O)O)cc1Cl`
239

Give Kd for `CN(C)c1ccc(/C=N/n2nnnc2N)cc1`
14.1

Others:
Give Kd for `Nc1cnccc1C(=O)O`
33.5

Give Kd for `C(=N\Nc1nc(-c2cccnc2)cs1)/c1cccnc1`
15.6

Give Kd for `O=C(O)Cn1c(=O)c2cc3c(=O)n(CC(=O)O)c(=O)c3cc2c1=O`
20.9

Give Kd for `Cc1ccccc1C(=O)Nc1cc(C(=O)O)cc(C(=O)O)c1`
28.8

====

assay text: Lipophilicity, log P of the compound
Format: physicochemical
measurement conditions: octanol/water; read-out: logP
parameter measured: logP
Answer field: number only, no words.

Solved cases below.
Give logP for `O=C(O)Cc1c(C(=O)O)[nH]c2ccccc12`
1.67

Give logP for `O=c1nc2oc3cc(O)ccc3cc-2c(=O)[nH]1`
1.25

Give logP for `N#CCCNCc1cccnc1`
0.03

Others:
Give logP for `O=C(O)c1ccccc1-c1nc(O)c2ccccc2n1`
2.25

Give logP for `c1ccc2[nH]c(Cc3ccncc3)nc2c1`
2.14

Give logP for `O=C(NCCOc1ccccc1)C(=O)Nc1ccccc1`
1.77

Give logP for `Cn1c(=O)c(CC(=O)C(=O)O)nc2ccccc21`
-0.29

Give logP for `N#CC(C#N)=CNNC(=O)CNC(=O)c1ccccc1[N+](=O)[O-]`
-0.72

Give logP for `Cc1cc(O)nc(-c2ccc(C(N)=O)cc2)n1`
0.86

====

assay text: Lipophilicity, log P of the compound
Format: physicochemical
measurement conditions: octanol/water; read-out: logP
parameter measured: logP
Answer field: number only, no words.

Solved cases below.
Give logP for `COc1cc(CC(=O)O)c([N+](=O)[O-])cc1OC`
1.3

Give logP for `CCN(CC)c1ccc(/C=N/n2nnnc2N)c(O)c1`
1.17

Give logP for `CN(C)CCN(C)Cc1cccc2ccccc12`
3.05

Give logP for `O=C(CNC(=O)c1ccc2[nH]c3ccccc3c2c1)NCCO`
1.4

Give logP for COc1ccc(C(N)Cc2cnc[nH]2)cc1 (configuration not stated)
0.81

Others:
Give logP for `COc1ccc(C(=O)COC(=O)/C=C/c2ccccc2)cc1`
3.7

Give logP for `Cc1cc(C)nc(NC(=N)Nc2ccc(C(=O)O)cc2)n1`
1.62

====

assay text: Lipophilicity, log P of the compound
Format: physicochemical
measurement conditions: octanol/water; read-out: logP
If the reported logP equals or exceeds 2, assign yes. If not, assign no.

Decide: is the reported value of logP for `O=C(O)CCn1ncc2ccccc21` equal to or greater than 2?
no

Decide: is the reported value of logP for `Oc1ccccc1/C=N/Nc1nnn[nH]1` equal to or greater than 2?
yes

Decide: is the reported value of logP for `NCCNc1nc(-c2ccccc2)nnc1-c1ccc(Cl)cc1` equal to or greater than 2?
yes

Decide: is the reported value of logP for `NC(=O)c1ccc[n+](-c2ccccc2)c1` equal to or greater than 2?
yes

Decide: is the reported value of logP for `COc1ccc(C(=O)/C=C/Nc2ccccc2C#N)cc1` equal to or greater than 2?
yes

Others:
Decide: is the reported value of logP for `O=C(O)c1cc(-c2cccnc2)nc2ccccc12` equal to or greater than 2?
yes

====

assay text: Solubility of the compound in ethanol
Assay type: physicochemical
parameter measured: solubility

Give solubility for `O=C(O)C(=O)Cc1c[nH]c2ccccc12`
Soluble

Give solubility for `COc1cc(CC(=O)O)c([N+](=O)[O-])cc1OC`
Insoluble

Give solubility for `O=C(CNc1ccc2ccccc2c1)N/N=C/c1ccccn1`
Insoluble

Give solubility for `Nc1cc(-c2ccc(F)cc2)nc(N)n1`
Soluble

====

Each record here notes measured logP.
assay text: Lipophilicity, log P of the compound
Type: physicochemical
measurement conditions: octanol/water; read-out: logP
Answer field: number only, no words.

Solved cases below.
Give logP for `O=C(Oc1ccc(S(=O)(=O)c2ccc(OC(=O)c3ccco3)cc2)cc1)c1ccco1`
3.38

Give logP for `Nc1nnnn1/N=C/c1cc2c(cc1[N+](=O)[O-])OCO2`
0.52

Give logP for `Cc1ccc(O)c(/C=N/c2cccc(C(=O)O)c2)c1`
3.28

Give logP for `Nc1nonc1-c1nc2ccccc2n1CC(=O)O`
1.08

Give logP for `Nc1cc(-c2ccc(F)cc2)nc(N)n1`
1.07

Others:
Give logP for `O=C(c1ccccc1O)c1[nH]ncc1[N+](=O)[O-]`
1.6

Give logP for `N#Cc1ncc(-c2ccccc2)nc1C#N`
0.8

Give logP for `Cc1n[nH]c(Nc2ccccc2F)c1[N+](=O)[O-]`
2.63

Give logP for `CN(C)c1ccc(/C=N/n2nnnc2N)cc1`
0.76

Give logP for `NC(=O)CNC(=O)Cc1ccccc1`
0.06

Give logP for `Nc1cc2nc3ccccc3nc2cc1N`
1.66

====

Each record here notes measured logP.
assay text: Lipophilicity, log P of the compound
Type: physicochemical
measurement conditions: octanol/water; read-out: logP
Answer field: number only, no words.

Give logP for `O=C(O)CSc1cccc2ccccc12`
3.22

Give logP for `COc1ccc(CNC(=N)NC(=N)N)cc1`
1.46

Give logP for `NC(=O)c1nnn2c1nc(N)c1cc(Cl)ccc12`
-0.14

Would you kindly look at the next entry?
Give logP for `Cc1ccccc1C(=O)O/N=C(\N)c1cccnc1`
2.61

====

assay text: Lipophilicity, log P of the compound
Assay type: physicochemical
measurement conditions: octanol/water; read-out: logP
Response field label: string, one of Condition met (logP strictly below 2) or Condition not met.

Known results for compounds:
A record lists `NCCCNc1ccc([N+](=O)[O-])c(N)c1` . Is its logP below 2?
Condition met

A record lists `O=C(O)c1cccc(NCN2C(=O)c3ccc([N+](=O)[O-])cc3C2=O)c1` . Is its logP below 2?
Condition not met

A record lists `c1cncc(CNCc2cccnc2)c1` . Is its logP below 2?
Condition met

A record lists `CN(C)c1ccc(/C=N/NC(=N)N)cc1` . Is its logP below 2?
Condition not met

A record lists O=C(CC1NCCNC1=O)NCc1ccccc1 (stereo unspecified) . Is its logP below 2?
Condition met

Others:
A record lists `Cc1ccc(Nc2n[nH]c(N=CNO)n2)cc1C` . Is its logP below 2?
Condition not met

A record lists `O=C(Cn1ncc2cc([N+](=O)[O-])ccc21)NCc1ccco1` . Is its logP below 2?
Condition met

A record lists `Nc1nonc1-n1cc(-c2ccccc2)nn1` . Is its logP below 2?
Condition met

A record lists `O=C(Nc1ccc(-c2cn3ccccc3n2)cc1)c1ccccc1[N+](=O)[O-]` . Is its logP below 2?
Condition not met

A record lists Cc1c(OC(C)C(=O)O)ccc2c3c(c(=O)oc12)CCC3 (stereo unspecified) . Is its logP below 2?
Condition not met

====

assay text: Lipophilicity, log P of the compound
Format: physicochemical
measurement conditions: octanol/water; read-out: logP
If the reported logP equals or exceeds 2, assign class 1. If not, assign class 0.

Known results for compounds:
Decide: is the reported value of logP for `Cc1ccc(CN2CCN(Cc3ccccc3)CC2)cc1` equal to or greater than 2?
class 1

Decide: is the reported value of logP for `NS(=O)(=O)c1ccc2c(N=O)c(O)ccc2c1` equal to or greater than 2?
class 0

Decide: is the reported value of logP for `Nn1c(=O)[nH]c2c([nH]c3ccccc32)c1=O` equal to or greater than 2?
class 0

Decide: is the reported value of logP for `COc1ccc(/C=N/NC(=O)Cc2ccc([N+](=O)[O-])cc2)cc1` equal to or greater than 2?
class 1

Decide: is the reported value of logP for `COC(=O)c1ccc(/C=N/n2cnnc2)cc1` equal to or greater than 2?
class 0

Decide: is the reported value of logP for `Cc1cc(-c2ccc(F)cc2)nc2cc(C(=O)O)nn12` equal to or greater than 2?
class 1

Field: next compound
Decide: is the reported value of logP for `Cc1nonc1NC(=O)CN1CCN(C)CC1` equal to or greater than 2?
class 0
